Attribution: patent EP4682166A1

Molecular target: T1, human NMI (N-myc Interacting protein), recombinant protein (human, UniProt Q13287 1-307, limits assumed)
T1 construct: Gene ID: 9111; also called hNMI; antigen
T1 sequence (looked up): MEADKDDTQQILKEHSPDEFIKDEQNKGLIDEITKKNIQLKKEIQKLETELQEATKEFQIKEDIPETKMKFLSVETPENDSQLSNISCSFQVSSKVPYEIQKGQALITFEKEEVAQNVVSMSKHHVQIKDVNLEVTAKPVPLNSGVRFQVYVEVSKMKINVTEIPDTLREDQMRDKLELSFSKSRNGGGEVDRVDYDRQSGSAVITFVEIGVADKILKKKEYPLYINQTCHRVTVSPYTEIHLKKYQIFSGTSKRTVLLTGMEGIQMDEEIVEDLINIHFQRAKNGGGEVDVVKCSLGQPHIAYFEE
Test: sandwich ELISA; detection 94C4-1-biotin 0.5µg/mL; hNMI 390.625 pg/mL
Quantity name: OD450 (OD450)
Use OD450 as the unit, but write only the number.

Looking up monoclonal antibody 39B4 (antibody, V domains shown, Rabbit monoclonal antibody; also called 39B4-1) VH: QEQLVESGGGLVQPEGSLTLTCTASGFSFSSSYWICWVRQAPGKGLEWIACIYAGTSGSTYYASWAKGRFTISKTSSTTVDLQMNSLTAADTATYFCARAGYYTYGAGVYIYPSSFKLWGPGTLVTVSS VL: DVVMTQTPASVEAAVGGTVTIKCQASESIGNALAWYQQKPGQPPKLLIYSASNLASGVPSRFSGSGSGTQFTLTISDLECADAATYYCQSYYYSSSSITFGGGTEVVVK , I found its OD450 recorded as 0.25
